# assay notes: total protein half-life in vivo (active degradation + dilution); higher = more stable protein
# particulars: E. coli NCM3722 delta-lon; growth: N-lim chemostat; doubling time 6 h
observation type: total protein half-life in vivo (h)

- MFDIGVNLTSSQFAKDRDDVVACAFDAGVNGLLITGTNLRESQQAQKLARQYSSCWSTAGVHPHDSSQWQAATEEAIIELAAQPEVVAIGECGLDFNRNFSTPEEQERAFVAQLRIAADLNMPVFMHCRDAHERFMTLLEPWLDKLPGAVLHCFTGTREEMQACVAHGIYIGITGWVCDERRGLELRELLPLIPAEKLLIETDAPYLLPRDLTPKPSSRRNEPAHLPHILQRIAHWRGEDAAWLAATTDANVKTLFGIAF: 5.25
- MTIKLIVGLANPGAEYAATRHNAGAWFVDLLAERLRAPLREEAKFFGYTSRVTLGGEDVRLLVPTTFMNLSGKAVAAMASFFRINPDEILVAHDELDLPPGVAKFKLGGGHGGHNGLKDIISKLGNNPNFHRLRIGIGHPGDKNKVVGFVLGKPPVSEQKLIDEAIDEAARCTEMWFTDGLTKATNRLHAFKAQ [P0A7D1]: 5.04
- MNMKKLATLVSAVALSATVSANAMAKDTIALVVSTLNNPFFVSLKDGAQKEADKLGYNLVVLDSQNNPAKELANVQDLTVRGTKILLINPTDSDAVGNAVKMANQANIPVITLDRQATKGEVVSHIASDNVLGGKIAGDYIAKKAGEGAKVIELQGIAGTSAARERGEGFQQAVAAHKFNVLASQPADFDRIKGLNVMQNLLTAHPDVQAVFAQNDEMALGALRALQTAGKSDVMVVGFDGTPDGEKAVNDGKLAATIAQLPDQIGAKGVETADKVLKGEKVQAKYPVDLKLVVKQ: 6.39
- MKIISKMLVGALALAVTNVYAAELMTKAEFEKVESQYEKIGDISTSNEMSTADAKEDLIKKADEKGADVLVLTSGQTDNKIHGTANIYKKK: 5.4
- MILIIYAHPYPHHSHANKRMLEQARTLEGVEIRSLYQLYPDFNIDIAAEQEALSRADLIVWQHPMQWYSIPPLLKLWIDKVFSHGWAYGHGGTALHGKHLLWAVTTGGGESHFEIGAHPGFDVLSQPLQATAIYCGLNWLPPFAMHCTFICDDETLEGQARHYKQRLLEWQEAHHG [P0A754]: 6.37
- MDMHSGTFNPQDFAWQGLTLTPAAAIHIRELVAKQPGMVGVRLGVKQTGCAGFGYVLDSVSEPDKDDLLFEHDGAKLFVPLQAMPFIDGTEVDFVREGLNQIFKFHNPKAQNECGCGESFGV: 3.64
- MERVSITERPDWREKAHEYGFNFHTMYGEPYWCEDAYYKLTLAQVEKLEEVTAELHQMCLKVVEKVIASDELMTKFRIPKHTWSFVRQSWLTHQPSLYSRLDLAWDGTGEPKLLENNADTPTSLYEAAFFQWIWLEDQLNAGNLPEGSDQFNSLQEKLIDRFVELREQYGFQLLHLTCCRDTVEDRGTIQYLQDCATEAEIATEFLYIDDIGLGEKGQFTDLQDQVISNLFKLYPWEFMLREMFSTKLEDAGVRWLEPAWKSIISNKALLPLLWEMFPNHPNLLPAYFAEDDHPQMEKYVVKPIFSREGANVSIIENGKTIEAAEGPYGEEGMIVQQFHPLPKFGDSYMLIGSWLVNDQPAGIGIREDRALITQDMSRFYPHIFVE [P0ADT5]: 4.93
- MDQAGIIRDLLIWLEGHLDQPLSLDNVAAKAGYSKWHLQRMFKDVTGHAIGAYIRARRLSKSAVALRLTARPILDIALQYRFDSQQTFTRAFKKQFAQTPALYRRSPEWSAFGIRPPLRLGEFTMPEHKFVTLEDTPLIGVTQSYSCSLEQISDFRHEMRYQFWHDFLGNAPTIPPVLYGLNETRPSQDKDDEQEVFYTTALAQDQADGYVLTGHPVMLQGGEYVMFTYEGLGTGVQEFILTVYGTCMPMLNLTRRKGQDIERYYPAEDAKAGDRPINLRCELLIPIRR [P0ACI0]: 5.49
- MKNSKAILQVPGTMKIISAEIPVPKEDEVLIKVEYVGICGSDVHGFESGPFIPPKDPNQEIGLGHECAGTVVAVGSRVRKFKPGDRVNIEPGVPCGHCRYCLEGKYNICPDVDFMATQPNYRGALTHYLCHPESFTYKLPDNMDTMEGALVEPAAVGMHAAMLADVKPGKKIIILGAGCIGLMTLQACKCLGATEIAVVDVLEKRLAMAEQLGATVVINGAKEDTIARCQQFTEDMGADIVFETAGSAVTVKQAPYLVMRGGKIMIVGTVPGDSAINFLKINREVTIQTVFRYANRYPVTIEAISSGRFDVKSMVTHIYDYRDVQQAFEESVNNKRDIIKGVIKISD: 3.28
- MQEIMQFVGRHPILSIAWIALLVAVLVTTFKSLTSKVKVITRGEATRLINKEDAVVVDLRQRDDFRKGHIAGSINLLPSEIKANNVGELEKHKDKPVIVVDGSGMQCQEPANALTKAGFAQVFVLKEGVAGWAGENLPLVRGK [P0AG27]: 5.77
- MFSIQQPLLVFSDLDGTLLDSHSYDWQPAAPWLTRLREANVPVILCSSKTSAEMLYLQKTLGLQGLPLIAENGAVIQLAEQWQEIDGFPRIISGISHGEISLVLNTLREKEHFKFTTFDDVDDATIAEWTGLSRSQAALTQLHEASVTLIWRDSDERMAQFTARLNELGLQFMQGARFWHVLDASAGKDQAANWIIATYQQLSGKRPTTLGLGDGPNDAPLLEVMDYAVIVKGLNREGVHLHDEDPARVWRTQREGPEGWREGLDHFFSAR: 4.3
- MSDTTELVDLAVIFPDLEIELKYACADNITGKAIYQQARCLLHKDAITALAKSISIAQLSGLQLVIYDAYRPQQAQAMLWQACPDPQYVVDVTVGSNHSRGTAIDLTLRDEHGNILDMGAGFDEMHERSHAYHPSVPPAAQRNRLLLNAIMTGGGFVGISSEWWHFELPQAASYPLLADQFSCFISPGTQHVS: 3.64
